biological target: PI3Kδ (p110δ/p85α) (Homo sapiens, UniProt O00329); experiment: PI3Kδ scintillation proximity assay (enzyme assay A); settings: 20 μM PIP2, 20 μM ATP, 4 nM PI3Kδ, 210 minutes, room temperature; read-out: IC50 data for PI3Kδ enzyme assay A (PI3Kd Enzyme Assay A)
Sequence (O00329 whole entry): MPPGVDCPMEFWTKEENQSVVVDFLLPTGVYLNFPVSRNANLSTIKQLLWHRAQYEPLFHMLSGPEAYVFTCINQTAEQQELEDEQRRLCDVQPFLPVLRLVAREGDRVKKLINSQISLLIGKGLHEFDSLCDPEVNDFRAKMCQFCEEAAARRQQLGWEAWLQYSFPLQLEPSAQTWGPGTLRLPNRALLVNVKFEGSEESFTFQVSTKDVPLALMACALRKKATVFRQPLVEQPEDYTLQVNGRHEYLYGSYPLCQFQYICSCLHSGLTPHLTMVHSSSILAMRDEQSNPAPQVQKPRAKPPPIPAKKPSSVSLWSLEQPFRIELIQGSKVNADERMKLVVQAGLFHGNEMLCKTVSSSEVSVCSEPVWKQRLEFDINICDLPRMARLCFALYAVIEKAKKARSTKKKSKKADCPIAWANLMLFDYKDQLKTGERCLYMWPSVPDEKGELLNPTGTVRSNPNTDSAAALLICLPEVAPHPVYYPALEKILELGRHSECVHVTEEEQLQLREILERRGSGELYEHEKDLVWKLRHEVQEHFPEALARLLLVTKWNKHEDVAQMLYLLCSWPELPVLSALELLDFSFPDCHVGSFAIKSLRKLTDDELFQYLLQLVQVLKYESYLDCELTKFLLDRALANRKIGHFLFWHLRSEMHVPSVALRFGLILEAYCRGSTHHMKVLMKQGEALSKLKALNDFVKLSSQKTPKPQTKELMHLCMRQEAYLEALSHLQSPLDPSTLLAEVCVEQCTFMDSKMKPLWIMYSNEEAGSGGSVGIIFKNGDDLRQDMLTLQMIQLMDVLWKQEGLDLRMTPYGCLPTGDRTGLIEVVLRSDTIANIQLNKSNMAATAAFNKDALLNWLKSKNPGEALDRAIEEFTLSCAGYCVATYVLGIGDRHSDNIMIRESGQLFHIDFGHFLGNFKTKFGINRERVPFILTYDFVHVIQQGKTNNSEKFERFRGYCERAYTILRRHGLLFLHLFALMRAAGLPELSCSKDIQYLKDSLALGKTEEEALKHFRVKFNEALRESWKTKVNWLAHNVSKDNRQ
Sequence (P27986 whole entry partner): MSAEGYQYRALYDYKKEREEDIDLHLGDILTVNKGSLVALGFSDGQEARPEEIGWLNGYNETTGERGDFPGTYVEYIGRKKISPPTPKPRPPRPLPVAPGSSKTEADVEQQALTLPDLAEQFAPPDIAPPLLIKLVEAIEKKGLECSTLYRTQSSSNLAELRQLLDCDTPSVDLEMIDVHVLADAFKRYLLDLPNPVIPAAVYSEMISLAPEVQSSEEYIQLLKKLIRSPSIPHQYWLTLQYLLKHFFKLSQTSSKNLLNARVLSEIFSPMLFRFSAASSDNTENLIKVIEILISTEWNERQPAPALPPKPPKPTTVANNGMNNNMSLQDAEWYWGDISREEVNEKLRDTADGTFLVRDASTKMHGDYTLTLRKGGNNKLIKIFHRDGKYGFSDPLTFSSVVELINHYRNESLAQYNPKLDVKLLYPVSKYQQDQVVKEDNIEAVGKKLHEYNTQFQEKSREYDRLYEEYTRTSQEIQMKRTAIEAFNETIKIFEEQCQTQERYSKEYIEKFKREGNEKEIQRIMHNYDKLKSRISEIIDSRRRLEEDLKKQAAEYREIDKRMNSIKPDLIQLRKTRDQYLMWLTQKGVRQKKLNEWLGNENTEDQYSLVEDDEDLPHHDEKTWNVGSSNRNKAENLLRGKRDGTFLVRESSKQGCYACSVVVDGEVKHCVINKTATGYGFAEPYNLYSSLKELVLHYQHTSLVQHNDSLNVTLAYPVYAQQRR
experimental readout: IC50

Example entries and their recorded answers appear below.
CC(Nc1ncnc2[nH]cnc12)c1nc2cc(Cl)ccn2c1-c1cccc(F)c1 (stereo not shown): < 200 nM
Cc1csc2nc(C(C)Nc3ncnc4[nH]cnc34)c(-c3cccc(F)c3)n12 (stereo not shown) [Example 4, bis(trifluoroacetate)]: 500 to 990 nM
CC(Nc1ncnc2[nH]cnc12)c1nc2ccccn2c1-c1cccc(F)c1F (stereo not shown): 200 to 500 nM

Here is another molecule to look at.
Give the measured IC50 for CC(Nc1ncnc2[nH]cnc12)c1nc2c(F)cccn2c1-c1cccc(F)c1 (stereo not shown)
< 200 nM

====

target: PI3Kδ (p110δ/p85α) (Homo sapiens); test: PI3Kδ scintillation proximity assay (enzyme assay A); conditions: 20 μM PIP2, 20 μM ATP, 4 nM PI3Kδ, 210 minutes, room temperature; read-out: IC50 data for PI3Kδ enzyme assay A (PI3Kd Enzyme Assay A)
Where a name gives a salt, the structure may show the parent alone.
experimental readout: IC50

The cases that follow already have their IC50 on record.
CC(Nc1ncnc2[nH]cnc12)c1nc2sccn2c1-c1cc(F)cc(F)c1 (centres unmarked) [Example 3, bis(trifluoroacetate)]: > 2 µM
CC(Nc1ncnc2[nH]cnc12)c1nc2cccc(Cl)n2c1-c1cccc(F)c1 (centres unmarked) [Example 7, tris(trifluoroacetate)]: < 0.2 µM
Cc1ccccc1-c1c(C(C)Nc2ncnc3[nH]cnc23)nc2ccccn12 (centres unmarked) [Example 20]: 0.99 to 2 µM

Specify IC50 for Cc1ccc(-c2c(C(C)Nc3ncnc4[nH]cnc34)nc3ccccn23)cc1 (centres unmarked) [Example 17] and stop.
0.5 to 0.99 µM

Specify measured IC50 for CC(Nc1ncnc2[nH]cnc12)c1nn2ccccc2c1-c1cc(F)cc(F)c1 (centres unmarked) [Example 25, trifluoroacetate] .
< 0.2 µM

# return recorded IC50 for input CC(Nc1ncnc2[nH]cnc12)c1nc2ccccn2c1-c1cc(F)cc(F)c1 (centres unmarked) [Example 23]
0.2 to 0.5 µM

Item CC(Nc1ncnc2[nH]cnc12)c1nc2c(C(F)(F)F)cccn2c1-c1cccc(F)c1 (centres unmarked) [Example 15, bis(trifluoroacetate)] : provide IC50
0.99 to 2 µM

Supply recorded IC50 for Cc1ccn2c(-c3cccc(F)c3)c(C(C)Nc3ncnc4[nH]cnc34)nc2c1 (centres unmarked) [Example 9, bis(trifluoroacetate)] here.
> 2 µM

====

target: PI3Kδ (p110δ/p85α) (Homo sapiens, UniProt O00329); test: PI3Kδ scintillation proximity assay (enzyme assay A); conditions: 20 μM PIP2, 20 μM ATP, 4 nM PI3Kδ, 210 minutes, room temperature; read-out: IC50 data for PI3Kδ enzyme assay A (PI3Kd Enzyme Assay A)
pIC50: −log10 of the molar value.
experimental readout: pIC50

// worked examples, pIC50 included
CC(Nc1ncnc2[nH]cnc12)c1nc2ccc(Cl)cn2c1-c1cccc(F)c1 (centres unmarked) [Example 6, bis(trifluoroacetate)]: > 6.70
CC(Nc1ncnc2[nH]cnc12)c1nc2ccccn2c1-c1cccc(F)c1 (centres unmarked): > 6.70
Cc1cccc2nc(C(C)Nc3ncnc4[nH]cnc34)c(-c3cc(F)cc(F)c3)n12 (centres unmarked): > 6.70
Cc1cccc(-c2c(C(C)Nc3ncnc4[nH]cnc34)nc3ccccn23)c1 (centres unmarked): 6.00 to 6.30

Annotate the compound CC(Nc1ncnc2[nH]cnc12)c1nc2ccccn2c1-c1ccccc1F (centres unmarked) with its measured pIC50.
6.30 to 6.70

====

target: PI3Kδ (p110δ/p85α) (Homo sapiens, UniProt O00329); assay: PI3Kδ scintillation proximity assay (enzyme assay A); conditions: 20 μM PIP2, 20 μM ATP, 4 nM PI3Kδ, 210 minutes, room temperature; read-out: IC50 data for PI3Kδ enzyme assay A (PI3Kd Enzyme Assay A)
experimental readout: IC50

Consider the worked cases shown below.
CC(Nc1ncnc2[nH]cnc12)c1nc2ccccn2c1-c1ccc(F)cc1 (stereo not shown): 990 to 2000 nM
CC(Nc1ncnc2[nH]cnc12)c1nc2ccccn2c1-c1cc(F)ccc1F (stereo not shown): < 200 nM
CC(Nc1ncnc2[nH]cnc12)c1nc2c(C#N)cccn2c1-c1cccc(F)c1 (stereo not shown) [Example 16, bis(trifluoroacetate)]: 990 to 2000 nM
Cc1ccc2nc(C(C)Nc3ncnc4[nH]cnc34)c(-c3cccc(F)c3)n2c1 (stereo not shown) [Example 8, bis(trifluoroacetate)]: 500 to 990 nM
Cc1cn2c(-c3cccc(F)c3)c(C(C)Nc3ncnc4[nH]cnc34)nc2s1 (stereo not shown): > 2000 nM
Cc1cccn2c(-c3cccc(F)c3)c(C(C)Nc3ncnc4[nH]cnc34)nc12 (stereo not shown) [Example 10, bis(trifluoroacetate)]: < 200 nM

Pending compound:
Give IC50; test system PI3Kδ (p110δ/p85α) (Homo sapiens, UniProt O00329); compound CC(Nc1ncnc2[nH]cnc12)c1nc2c(Cl)cccn2c1-c1cccc(F)c1 (stereo not shown) [Example 11, bis(trifluoroacetate)]
< 200 nM
